Test system: TRPC4 beta (transient receptor potential cation channel C4), mouse
ASSAY COMMENT: TRPC4 cation channel opening, retest – cell-based, Fluo4 calcium, HEK293 TRPC4beta/mu-opioid, duplicates, 10 µM, confirmation (AID 2426);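 for activation: percent rise of integrated ratio over buffer wells lacking compound which define 0%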
CONDITION INFO: Fluo4 calcium fluorescence, at 10 µM; hits give high values
Activity calls are given as the source filed them.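 Rule for the calls: active = fluorescence ratio normalized to control raised more than 50% in primary screen plus both repeat runs; inactive = the rest.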
PARAMETER: activation

Example compounds with recorded activation:
COMPOUND	activation
Cc1ccc2nc(C)cc(Nc3ccc4c(c3)OCCO4)c2c1	inactive
c1ccc2c(N3CCCCC3)nc(N3CCOCC3)nc2c1	inactive
CCN(Cc1ccccc1)S(=O)(=O)c1ccc(C(=O)N(CCCN(C)C)c2nc3c(F)cccc3s2)cc1	76% (active)
CCN(C(=O)c1cnc(NC(C)C)cc1C(F)(F)F)c1ccc(Cl)cc1Cl	inactive

Query for TRPC4 beta (transient receptor potential cation channel C4), mouse: what activation does the record show for CN(C)CC(CCC(CN(C)C)C(O)(c1ccccc1)c1ccccc1)C(O)(c1ccccc1)c1ccccc1 (stereo not given) ?
inactive

* * *

ASSAY COMMENT: nonspecific flux increase, KCNQ1-free cells – parental CHO cells, counter-screen for KCNQ1 potentiator project (AID 493006);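 note: fluorescence ratio of max minus min over baseline after K+ and Tl+ depolarization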
CONDITION INFO: parental CHO-K1 cells, FluxOR thallium flux, at 10 µM; hits give high values
Activity calls are given as the source filed them.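 The calls were made as follows: active = duplicate-averaged activation above buffer control mean plus 5 SD of those controls; inactive = the rest.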
Kindly state activation for each of the entries shown.

State recorded activation for all listed molecules.
1. O=c1c2cc(Br)ccc2nc(-c2cccc(Cl)c2)n1O
2. Cc1cccc(/C=N/NC(=O)c2cc(Br)ccc2O)n1

1: 803% (active); 2: 140% (active)

* * *

TESTED TARGET: Short transient receptor potential channel 4 (Mus musculus) (UniProt Q9QUQ5)
ASSAY COMMENT: calcium flux activators in TRPC4/5HT1a cells, counter-screen for TRPC4 activator project, cell-based, second counter screen, HEK293 TRPC4/5HT1a, Fluo-4 (AID 434977)
CONDITION INFO: Fluo-4 calcium flux, at 10 µM
The source made the active and inactive calls.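 How the source made its calls: active means calcium signal rise above buffer-control mean plus 5 SD in both duplicates, and also a hit in the primary screen; inactive means the rest.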
Choose one outcome from this list and give only that: True (active), False (inactive)

MOLECULE	CATEGORY
Cc1cc(OCCN2CCCC2)ccc1[N+](=O)[O-]	False
CCOc1ccc(N=CNc2ccc(OCC)cc2)cc1	False
COc1ccc(-n2c3c(cc(C(=O)NNc4ccccc4)c2=O)C(=O)CC(C)(C)C3)cc1	False
CC[n+]1c(/C=C/Nc2ccccc2)sc2ccccc21	False
CC(C)CCn1c(Sc2nc3ccccc3o2)nc2c1c(=O)[nH]c(=O)n2C	False
CCOc1ccc(-c2cc(NC(=O)c3c(F)cccc3F)c(C(=O)O)s2)cc1	False

Per the records of this test, what outcome belongs to `CC(C)(C)c1ccccc1OCCCCCn1ccnc1` ?
False

* * *

TESTED TARGET: Short transient receptor potential channel 6 (Mus musculus) (UniProt Q61143)
Sequence (Q61143 whole entry, looked up): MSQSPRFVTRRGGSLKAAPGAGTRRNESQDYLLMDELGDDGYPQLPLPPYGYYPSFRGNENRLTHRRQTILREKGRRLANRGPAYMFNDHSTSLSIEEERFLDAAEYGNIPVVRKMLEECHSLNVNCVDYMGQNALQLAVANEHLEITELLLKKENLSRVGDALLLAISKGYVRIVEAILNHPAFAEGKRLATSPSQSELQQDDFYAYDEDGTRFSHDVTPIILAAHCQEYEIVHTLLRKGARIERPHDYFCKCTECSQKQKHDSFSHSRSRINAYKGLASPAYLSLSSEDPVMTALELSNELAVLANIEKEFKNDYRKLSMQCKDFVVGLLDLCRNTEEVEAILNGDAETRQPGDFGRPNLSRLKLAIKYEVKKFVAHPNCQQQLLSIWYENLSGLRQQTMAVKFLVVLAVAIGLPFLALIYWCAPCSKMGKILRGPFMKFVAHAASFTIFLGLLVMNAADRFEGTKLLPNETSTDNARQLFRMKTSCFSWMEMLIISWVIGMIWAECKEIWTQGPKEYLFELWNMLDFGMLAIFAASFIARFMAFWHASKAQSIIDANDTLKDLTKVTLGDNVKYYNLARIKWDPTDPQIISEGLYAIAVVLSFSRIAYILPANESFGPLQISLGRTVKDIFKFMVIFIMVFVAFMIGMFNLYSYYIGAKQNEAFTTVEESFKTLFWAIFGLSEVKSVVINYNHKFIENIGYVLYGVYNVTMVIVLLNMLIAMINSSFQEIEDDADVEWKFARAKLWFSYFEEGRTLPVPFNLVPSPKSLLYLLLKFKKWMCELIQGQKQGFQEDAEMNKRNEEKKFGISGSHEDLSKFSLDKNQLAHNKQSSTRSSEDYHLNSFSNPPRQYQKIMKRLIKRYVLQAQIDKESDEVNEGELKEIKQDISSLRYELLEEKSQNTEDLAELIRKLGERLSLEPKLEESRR
ASSAY COMMENT: TRPC6 blockade by TRPC4 inhibitor hits – cell-based, HEK293, membrane potential dye, duplicate, selectivity assay for TRPC4 inhibitor project, confirmation (AID 434948)
CONDITION INFO: HEK293 TRPC6, membrane potential dye fluorescence, at 10 µM, stimulated with maximal-effect acetylcholine
Active and inactive are the calls of the source.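 The calls were made as follows: active = active in primary screen and both duplicates, each dropping signal beyond three positive-control SD with fluorescence still positive; inactive = the rest.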
Choose one outcome from this list and give only that: active, inactive

Solved cases (5 shown):
MOLECULE	TESTED TARGET	CATEGORY
CCC(=O)N1CCc2cc(S(=O)(=O)NCCN3CCCCC3CC)ccc21 (stereo unspecified)	Short transient receptor potential channel 6 (Mus musculus) (UniProt Q61143)	inactive
COc1cccc(/C=C2\SC(=S)N(NS(=O)(=O)c3ccc(C)cc3)C2=O)c1OC	Short transient receptor potential channel 6 (Mus musculus) (UniProt Q61143)	inactive
CCOc1ccc(Cl)cc1/C=N/O	Short transient receptor potential channel 6 (Mus musculus) (UniProt Q61143)	active
CCOC(=O)CSc1nc2c(sc(=S)n2-c2ccccc2OC)c(=O)n1-c1ccccc1OC	Short transient receptor potential channel 6 (Mus musculus) (UniProt Q61143)	inactive
CCOC(=O)CSc1nc2ccccc2c(=O)n1C1CCCC1	Short transient receptor potential channel 6 (Mus musculus) (UniProt Q61143)	inactive

Note: attention shifts to another entry.
Per the records of this test, what outcome belongs to `Cc1ccc(NC(=O)CNc2ccccc2CN(C)C2CCCCC2)cc1` ?
inactive

* * *

System: TRPC4 beta (transient receptor potential cation channel C4), mouse
ASSAY COMMENT: potentiation of DAMGO EC20 TRPC4 response – cell-based, Fluo-4, HEK293 TRPC4beta/mu-opioid, confirmation (AID 2555)
CONDITION INFO: DAMGO EC20, Fluo-4 calcium flux, at 10 µM; hits give high values
Calls of active or inactive are those of the source.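 The calls were made as follows: active = primary screen hit whose calcium fluorescence ratio, in both repeats, exceeds the weak agonist control mean by 3 SD; inactive = the rest.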
PARAMETER: potentiation

Example compounds with recorded potentiation:
COMPOUND	potentiation
COc1ccc(CN2CCC(N(CCc3ccccc3)Cc3ccccc3)CC2)c(OC)c1	inactive
O=[N+]([O-])c1ccc(O)c(C2=NNC(c3ccccc3F)C2)c1 (stereo not given)	inactive
CCN1CCN(c2ccc(S(=O)(=O)N3CCCCC3)cc2NC(=O)COc2cc(C)ccc2Cl)CC1	16% (active)
Clc1ccc2nc(N3CCNCC3)nc(-c3ccccc3)c2c1	inactive
COc1ccc(C2=NN(C(=O)c3ccccc3)C(c3ccc(OC)c(OC)c3)C2)c(O)c1 (stereo not given)	inactive

State recorded potentiation for all listed compounds.
1. COc1ccc(-n2nc(C(=O)NCC(=O)NCCCN3CC(C)CC(C)C3)c3ccccc3c2=O)cc1Cl (stereo not given)
2. Cc1cc2oc(C(=O)N(Cc3ccco3)C3CCS(=O)(=O)C3)cc(=O)c2cc1Cl (stereo not given)
3. Cc1ccn2c(CNCCCn3cccn3)c(C(=O)N3CCCCCC3)nc2c1
4. c1ccc(-c2nc(NCc3ccco3)c3ccccc3n2)cc1

1. inactive
2. 66% (active)
3. inactive
4. inactive

Would you kindly share the measured potentiation for `O=S(=O)(Cc1ccccc1)N1CCC(c2nc(-c3cccs3)no2)CC1` ?
13% (active)

* * *

Tested on: TRPC4 (transient receptor potential cation channel C4 beta), mouse
ASSAY COMMENT: potentiation of DAMGO EC20 TRPC4 response – cell-based, second round, Fluo-4, HEK293 TRPC4beta/mu-opioid, 1 µM, confirmation (AID 2554)
CONDITION INFO: DAMGO EC20, Fluo-4 calcium flux, at 1 µM; hits give high values
Active and inactive are the calls of the source.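 Rule for the calls: active = primary screen hit whose fluorescence ratio, in both repeats, exceeds the weak agonist control mean by 3 SD; inactive = the rest.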
PARAMETER: potentiation

COMPOUND	TESTED TARGET	RESULT
CSc1ncccc1C(=O)OCC(=O)N(CC(C)C)c1c(N)n(Cc2ccccc2)c(=O)[nH]c1=O	TRPC4 (transient receptor potential cation channel C4 beta), mouse	inactive
CCCCc1ccc(NC(=O)CSc2nnc(C)c(=O)n2N)cc1	TRPC4 (transient receptor potential cation channel C4 beta), mouse	inactive
Cc1ccc(-c2csc(NC(=O)C3CC=CCC3C(=O)O)c2C(=O)OC(C)C)cc1 (stereo not given)	TRPC4 (transient receptor potential cation channel C4 beta), mouse	inactive
COc1ccc(C(=O)C2CCCN(C3Cc4ccccc4C3)C2)cc1OC (stereo not given)	TRPC4 (transient receptor potential cation channel C4 beta), mouse	inactive

Would you kindly share the measured potentiation for `Cc1cc(CSC(=N)N)c(CSC(=N)N)cc1C` ?
inactive

* * *

Test system: TRPC4 beta (transient receptor potential cation channel C4), mouse
ASSAY COMMENT: TRPC4 cation channel opening, retest – cell-based, Fluo4 calcium, HEK293 TRPC4beta/mu-opioid, duplicates, 10 µM, confirmation (AID 2426)
CONDITION INFO: Fluo4 calcium fluorescence, at 10 µM
Activity calls are given as the source filed them.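 The calls were made as follows: active = fluorescence ratio normalized to control raised more than 50% in primary screen plus both repeat runs; inactive = the rest.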
Choose one outcome from this list and give only that: label 1 = active, label 0 = inactive

SMI	CATEGORY
O=C(CSc1nnc(-c2ccc(Cl)cc2Cl)n1C1CCCCC1)N1CCCC1	label 0
CC(C)Oc1ccc(CCC(=O)NNC(=S)NCc2ccccc2)cc1	label 0
CCCC[n+]1c2ccccc2cc2ccccc21	label 0
CSc1nnc(Cc2sc(-c3ccccc3)nc2-c2ccccc2)o1	label 0
O=C(Nc1ccc(Cl)cc1)N1CCC(c2nc(-c3cccs3)no2)CC1	label 1

Note: attention shifts to another entry.
Per the records of this test, what outcome belongs to `CN(C)CCCNc1ncnc2c1cnn2Cc1ccccc1Cl` ?
label 0

* * *

TESTED TARGET: Short transient receptor potential channel 4 (Mus musculus) (UniProt Q9QUQ5)
ASSAY COMMENT: calcium flux activators in TRPC4/5HT1a cells, counter-screen for TRPC4 activator project, cell-based, second counter screen, HEK293 TRPC4/5HT1a, Fluo-4 (AID 434977);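 for activation: plate controls were assay buffer for no effect and maximal serotonin response for full effect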
CONDITION INFO: Fluo-4 calcium flux, at 10 µM; hits give high values
Activity calls are given as the source filed them.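 The calls were made as follows: active = calcium signal rise above buffer-control mean plus 5 SD in both duplicates, and also a hit in the primary screen; inactive = the rest.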
PARAMETER: activation

MOLECULE	TESTED TARGET	PARAMETER	RESULT
COC(=O)C1=C(CCc2ccccc2)NC(=O)NC1c1ccc(Cl)cc1 (configuration not stated)	Short transient receptor potential channel 4 (Mus musculus) (UniProt Q9QUQ5)	activation	inactive
Nc1cc(=O)nc(SCC(=O)N2CCN(c3ccccc3)CC2)n1-c1ccc(F)cc1	Short transient receptor potential channel 4 (Mus musculus) (UniProt Q9QUQ5)	activation	inactive
CC(C)(C)C(=O)/C=c1\s/c(=C\c2ccc(-c3ccc([N+](=O)[O-])cc3)o2)c(=O)n1CC(=O)NC(N)=O	Short transient receptor potential channel 4 (Mus musculus) (UniProt Q9QUQ5)	activation	30% (active)
CC(=O)c1cccc(Nc2cc(C)nc3c(C)cc(C)cc23)c1	Short transient receptor potential channel 4 (Mus musculus) (UniProt Q9QUQ5)	activation	inactive
CCOC(=O)c1c(-c2cccc(C)c2)csc1NC(=O)C1CC=CCC1C(=O)O (configuration not stated)	Short transient receptor potential channel 4 (Mus musculus) (UniProt Q9QUQ5)	activation	inactive
CCOc1cccc(CN2CCCC(C(=O)c3cccc(C(F)(F)F)c3)C2)c1O (configuration not stated)	Short transient receptor potential channel 4 (Mus musculus) (UniProt Q9QUQ5)	activation	inactive

State recorded activation for all listed molecules.
1. Cc1cccc2nc(CSc3ccc(Cl)cc3)cn12
2. COc1ccc(Br)cc1CN1CCC(N2CCCC2)CC1

1: inactive; 2: inactive
